# TARGET_SYSTEM: Serine/threonine-protein kinase mTOR (Homo sapiens)
# label = rule met if IC50 < 0.03 µM else rule not met

Answered cases to consult:
>  <MOL>
COc1ccc(-c2ccc3c(N4CCOCC4)nc(CC#N)nc3n2)cc1CO

>  <ANSWER_LABEL>
rule not met

$$$$
>  <MOL>
COc1ccc(-c2ccc3c(N4CCOCC4)nc(C(CO)CO)nc3n2)cc1CO

>  <ANSWER_LABEL>
rule not met

$$$$

Field: below-cutoff. Rule: recorded IC50 strictly less than 0.03 µM. Subject: COc1ccc(-c2ccc3c(N4CCOCC4)nc(CN)nc3n2)cc1CO
rule not met

Field: below-cutoff. Rule: recorded IC50 strictly less than 0.03 µM. Subject: COc1ccc(-c2ccc3c(N4CCOC[C@@H]4C)nc(C4CCOCC4)nc3n2)cc1CO
rule not met

Field: below-cutoff. Rule: recorded IC50 strictly less than 0.03 µM. Subject: COc1ccc(-c2ccc3c(N4CCOC[C@@H]4C)nc(C(C)(C)C)nc3n2)cc1CO
rule met

Field: below-cutoff. Rule: recorded IC50 strictly less than 0.03 µM. Subject: COc1ccc(-c2ccc3c(N4CCOC[C@@H]4C)nc(CC(OC)OC)nc3n2)cc1CO
rule met

Field: below-cutoff. Rule: recorded IC50 strictly less than 0.03 µM. Subject: COc1ccc(-c2ccc3c(N4CCOCC4)nc(C#N)nc3n2)cc1CO
rule not met

* * *

Recorded pIC50 by entry
# TARGET_SYSTEM: Phosphatidylinositol 4,5-bisphosphate 3-kinase catalytic subunit alpha isoform (Homo sapiens, UniProt P42336)
# Sequence (P42336 whole entry, canonical isoform): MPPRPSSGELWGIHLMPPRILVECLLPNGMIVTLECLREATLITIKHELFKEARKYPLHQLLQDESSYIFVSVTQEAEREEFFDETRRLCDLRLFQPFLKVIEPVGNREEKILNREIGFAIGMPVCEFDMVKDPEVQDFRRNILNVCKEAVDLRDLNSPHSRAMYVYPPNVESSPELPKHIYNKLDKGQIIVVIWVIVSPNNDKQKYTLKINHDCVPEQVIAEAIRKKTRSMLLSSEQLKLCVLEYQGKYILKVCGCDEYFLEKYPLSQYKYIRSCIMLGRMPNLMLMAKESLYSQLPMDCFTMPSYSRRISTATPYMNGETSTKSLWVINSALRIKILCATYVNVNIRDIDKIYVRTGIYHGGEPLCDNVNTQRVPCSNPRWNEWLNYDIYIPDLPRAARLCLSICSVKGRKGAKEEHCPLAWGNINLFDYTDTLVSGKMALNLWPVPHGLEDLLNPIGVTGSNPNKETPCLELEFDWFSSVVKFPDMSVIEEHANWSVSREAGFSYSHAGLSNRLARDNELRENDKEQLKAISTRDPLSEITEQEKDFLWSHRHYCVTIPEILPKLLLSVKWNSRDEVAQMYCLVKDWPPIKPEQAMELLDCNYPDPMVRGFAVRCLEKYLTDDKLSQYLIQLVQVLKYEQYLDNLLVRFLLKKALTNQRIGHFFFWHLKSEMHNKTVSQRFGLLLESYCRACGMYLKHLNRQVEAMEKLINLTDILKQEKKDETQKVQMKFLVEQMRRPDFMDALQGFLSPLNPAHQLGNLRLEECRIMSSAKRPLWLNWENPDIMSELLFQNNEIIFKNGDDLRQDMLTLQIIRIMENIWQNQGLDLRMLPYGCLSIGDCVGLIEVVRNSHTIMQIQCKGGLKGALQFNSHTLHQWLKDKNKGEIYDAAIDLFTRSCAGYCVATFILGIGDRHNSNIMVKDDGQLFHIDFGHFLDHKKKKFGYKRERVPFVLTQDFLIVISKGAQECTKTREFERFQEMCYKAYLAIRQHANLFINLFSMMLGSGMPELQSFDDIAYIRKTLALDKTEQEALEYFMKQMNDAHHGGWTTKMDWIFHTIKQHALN
# ASSAY: Inhibition of PI3Kalpha (unknown origin) using PIP2 as substrate measured after 1 hr by Kinase-Glo luminescent assay
pIC50: −log10 of the molar value.

Consider the reported pIC50 for these molecules:
>  <MOL>
COc1ccc(-c2ccc3c(N4CCOCC4)nc(CS(C)(=O)=O)nc3n2)cc1CO

>  <pIC50>
< 5.00

$$$$
>  <MOL>
CNC(=O)c1cccc(-c2ccc3c(N4CCOC[C@@H]4C)nc(C(C)(C)C)nc3n2)c1

>  <pIC50>
5.89

$$$$
>  <MOL>
COc1ccc(-c2ccc3c(N4CCOC[C@@H]4C)nc(C)nc3n2)cc1CO

>  <pIC50>
< 5.00

$$$$
>  <MOL>
COc1ccc(-c2ccc3c(N4CCOCC4)nc(CN)nc3n2)cc1CO

>  <pIC50>
< 5.00

$$$$
>  <MOL>
COc1ccc(-c2ccc3c(N4CCOC[C@@H]4C)nc(C(C)C)nc3n2)cc1CO

>  <pIC50>
5.52

$$$$

pIC50 for COc1ccc(-c2ccc3c(N4CCOCC4)nc(CC#N)nc3n2)cc1CO ?
< 5.00

pIC50 for COc1ccc(-c2ccc3c(N4CCOC[C@@H]4C)nc(C(C)(C)C)nc3n2)cc1CO ?
6.40

pIC50 for COc1ccc(-c2ccc3c(N4CCOC[C@@H]4C)nc(C4CCOCC4)nc3n2)cc1CO ?
< 5.00

pIC50 for COc1ccc(-c2ccc3c(N4CCOCC4)nc(C(CO)CO)nc3n2)cc1CO ?
< 5.00

* * *

Recorded MRT by entry
# ASSAY: Mean residence time in Beagle dog at 1 mg/kg, po administered as single dose via gavage
# Format: ADME, organism-based, Canis lupus familiaris
# RECORDED_CONDITIONS: in vivo
Give just the numeric value; h need not be written.

>  <MOL>
COc1ccc(-c2ccc3c(N4CCOC[C@@H]4C)nc(N4CCOC[C@@H]4C)nc3n2)cc1CO

>  <MRT (h)>
3.1

$$$$

Now for another entry.
MRT for COc1ccc(-c2ccc3c(N4CCOC[C@@H]4C)nc(C(C)(C)C)nc3n2)cc1CO ?
4.3

* * *

# ASSAY: AUC (0 to 24 hrs) in Beagle dog at 1 mg/kg, po administered as single dose via gavage
# Assay type: ADME, organism-based, Canis lupus familiaris
# Design: time < 24 hr, dose 1 mg/kg, route oral
# RECORDED_CONDITIONS: in vivo
ENDPOINT_LABEL: AUC(0-t) at 24 h (ng·h/mL)
Give just the numeric value; ng·h/mL need not be written.

>  <MOLECULE>
COc1ccc(-c2ccc3c(N4CCOC[C@@H]4C)nc(N4CCOC[C@@H]4C)nc3n2)cc1CO [AZD-8055]

>  <AUC(0-t) at 24 h (ng·h/mL)>
787

$$$$

AUC(0-t) at 24 h for COc1ccc(-c2ccc3c(N4CCOC[C@@H]4C)nc(C(C)(C)C)nc3n2)cc1CO ?
857

* * *

# ASSAY: Cmax in Beagle dog at 1 mg/kg, po administered as single dose via gavage
# Type: ADME, organism-based, Canis lupus familiaris
# Set-up: dose 1 mg/kg, route oral
# RECORDED_CONDITIONS: in vivo
Recorded Cmax by entry
Give just the numeric value; ng/mL need not be written.

>  <MOLECULE>
COc1ccc(-c2ccc3c(N4CCOC[C@@H]4C)nc(N4CCOC[C@@H]4C)nc3n2)cc1CO [AZD-8055]

>  <OBSERVED_RESULT>
228

$$$$

Now for another entry.
Cmax for COc1ccc(-c2ccc3c(N4CCOC[C@@H]4C)nc(C(C)(C)C)nc3n2)cc1CO ?
288

* * *

Recorded pIC50 by entry
# TARGET_SYSTEM: Phosphatidylinositol 4,5-bisphosphate 3-kinase catalytic subunit alpha isoform (Homo sapiens)
# ASSAY: Inhibition of PI3Kalpha (unknown origin) using PIP2 as substrate measured after 1 hr by Kinase-Glo luminescent assay
Give only the number. pIC50 is defined as minus log10 of concentration in molar units.

>  <MOL>
COc1ccc(-c2ccc3c(N4CCOCC4)nc(C(N)=O)nc3n2)cc1CO

>  <pIC50>
5.49

$$$$

Now for another entry.
pIC50 for COc1ccc(-c2ccc3c(N4CCOCC4)nc(C#N)nc3n2)cc1CO ?
5.59
